# test_summary: Inhibition of NS5A in HCV genotype 1a H77 infected in human HuH7 replicon cells assessed as reduction in viral replication after 3 days by luciferase reporter gene assay
Hi! Could you tag entries with EC50 below 0.04 nM as Fulfilled, and those at or above as Not fulfilled? Much appreciated.

COC(=O)N[C@H](C(=O)N1CCC[C@H]1c1ncc(-c2ccc3c4ccc(-c5cnc([C@@H]6CCCN6C(=O)[C@@H](NC(=O)OC)C(C)C)[nH]5)cc4c4nc5ccccc5nc4c3c2)[nH]1)C(C)C = Not fulfilled
CC[C@H](C)[C@H](NC(=O)OC)C(=O)N1CCC[C@H]1c1ncc(-c2cc3c4c(c2)OCc2cc(-c5cnc([C@@H]6CCCN6C(=O)[C@@H](NC(=O)OC)[C@@H](C)CC)[nH]5)cc(c2-4)OC3)[nH]1 = Fulfilled
COC(=O)N[C@H](C(=O)N1CCC[C@H]1c1ncc(-c2cc3c4c(c2)COc2cc(-c5cnc([C@@H]6CCCN6C(=O)[C@@H](NC(=O)OC)C(C)C)[nH]5)cc(c2-4)OC3)[nH]1)C(C)C = Not fulfilled

Does COC[C@H]1C[C@@H](c2ncc(-c3ccc4c(c3)COc3cc5c(ccc6nc([C@@H]7C[C@H](C)CN7C(=O)[C@@H](NC(=O)OC)C(C)C)[nH]c65)cc3-4)[nH]2)N(C(=O)[C@H](NC(=O)OC)c2ccccc2)C1 have EC50 strictly under 0.04 nM?
Fulfilled

###

Let's look at some compounds and their measured EC50.
# test_summary: Inhibition of NS5A L31M mutant in HCV genotype 2a J6 (M31) infected in human HuH7 replicon cells assessed as reduction in viral replication after 3 days by luciferase reporter gene assay

COC(=O)N[C@H](C(=O)N1CCC[C@H]1c1nc2ccc3cc4c(cc3c2[nH]1)OCc1cc(-c2cnc([C@@H]3CCCN3C(=O)[C@H](NC(=O)OC)c3ccccc3)[nH]2)ccc1-4)C(C)C = 0.073 nM
COC(=O)NC(C(=O)N1CCC[C@H]1c1ncc(-c2cc3c4c(c2)OCc2cc(-c5cnc([C@@H]6CCCN6C(=O)[C@@H](NC(=O)OC)C(C)C)[nH]5)cc(c2-4)OC3)[nH]1)c1cccnc1 (some centres not stated) = 1.8 nM
COC[C@H]1C[C@@H](c2ncc(-c3ccc4c(c3)COc3cc5c(ccc6nc([C@@H]7C[C@H]8C[C@@H]8N7C(=O)[C@@H](NC(=O)OC)C(C)C)[nH]c65)cc3-4)[nH]2)N(C(=O)[C@H](NC(=O)OC)c2ccccc2)C1 = 0.113 nM
COC[C@H]1C[C@@H](c2ncc(-c3ccc4c(c3)COc3cc5c(ccc6nc([C@@H]7CCCN7C(=O)[C@@H](NC(=O)OC)C(C)C)[nH]c65)cc3-4)[nH]2)N(C(=O)[C@H](NC(=O)OC)c2ccccc2)C1 = 0.013 nM
COC(=O)N[C@H](C(=O)N1CCC[C@H]1c1ncc(-c2ccc3c(c2)COc2cc4c(ccc5nc([C@@H]6C[C@H](C)CN6C(=O)[C@@H](NC(=O)OC)C(C)C)[nH]c54)cc2-3)[nH]1)C(C)C = 0.443 nM
CCO[C@H]1C[C@@H](c2nc3ccc4cc5c(cc4c3[nH]2)OCc2cc(-c3cnc([C@@H]4CCCN4C(=O)[C@@H](NC(=O)OC)C(C)C)[nH]3)ccc2-5)N(C(=O)[C@@H](NC(=O)OC)C(C)C)C1 = 0.378 nM
COC(=O)N[C@H](C(=O)N1CCC[C@H]1c1ncc(-c2ccc3c(c2)COc2cc4c(ccc5nc([C@@H]6CCCN6C(=O)[C@H](NC(=O)OC)c6ccccc6)[nH]c54)cc2-3)[nH]1)C(C)C = 0.134 nM
COC(=O)N[C@H](C(=O)N1CCC[C@H]1c1ncc(-c2cc3c4c(ccc5cc(-c6cnc([C@@H]7CCCN7C(=O)[C@@H](NC(=O)OC)C(C)C)[nH]6)cc(c54)OC3)c2)[nH]1)C(C)C = 19.7 nM

Item: COC(=O)N[C@H](C(=O)N1CCC[C@H]1c1ncc(-c2ccc3c(c2)COc2c-3ccc3c2ccc2nc([C@@H]4CCCN4C(=O)[C@@H](NC(=O)OC)C(C)C)[nH]c23)[nH]1)C(C)C | EC50: 20.9 nM

Item: COC[C@H]1C[C@@H](c2ncc(-c3ccc4c(c3)COc3cc5c(ccc6nc([C@@H]7C[C@H](C)CN7C(=O)[C@@H](NC(=O)OC)C(C)C)[nH]c65)cc3-4)[nH]2)N(C(=O)[C@H](NC(=O)OC)c2ccccc2)C1 | EC50: 0.014 nM

Item: COC(=O)N[C@H](C(=O)N1CCC[C@H]1c1ncc(-c2cc3c4c(c2)OCc2cc(-c5cnc([C@@H]6CCCN6C(=O)[C@@H](NC(=O)OC)C(C)C)[nH]5)cc(c2-4)OC3)[nH]1)C(C)C | EC50: 8.81 nM

Item: COC[C@H]1C[C@@H](c2nc3ccc4cc5c(cc4c3[nH]2)OCc2cc(-c3cnc([C@@H]4CC[C@H](C)N4C(=O)[C@@H](NC(=O)OC)C(C)C)[nH]3)ccc2-5)N(C(=O)[C@@H](NC(=O)OC)C(C)C)C1 | EC50: 0.067 nM
